assay: protein stability index of a GFP-peptide fusion (yeast GPS) (PSI 1-4); higher = more stable; sorted into four equal gates, so the index is relative within each strain; details: san1∆
Outcome: MET for protein stability index of at least 3; NOT MET for anything lower.

item-sequence	answer-label
FRGNISQPKIGYGSNKK [RPL32]	NOT MET
PIDDTMTLLTDSLRKLY [MTW1]	NOT MET
KPNDLVGVNKDSYLILD [RPT5]	MET
EPQGAVTHMDQIFVRGS [SMD3]	NOT MET
GGLRPFGVSFIYAGYDD [PRE9]	NOT MET
LQSNSKLASTLEKISSS [SMC4]	NOT MET
SNMFDNSADVDMDAQGR [YGL100W/SEH1]	MET
VDPVYKDVAKPTGPKTA [FAS2]	NOT MET
KWSKKSMKDRAQHAVIL [RPS25A]	NOT MET
QQQQQNQQQQNQQPQQQ [SWI1]	NOT MET
SVVSMSNDVLKPETPKG [SIR2]	MET
NDHSKSANPKKTTITRV [SWI3]	MET

---

assay: protein stability index of a GFP-peptide fusion (yeast GPS) (PSI 1-4); higher = more stable; sorted into four equal gates, so the index is relative within each strain; details: san1∆
As shown below, each of these sequences has a reported protein stability index value.

item-sequence	protein stability index
RASIEYYVGQVMRNNES [DIS3]	3.21
RTIGIAVDHRRQNRNQE [RPL13A]	3.14
TLSTHSTTTSVNGSTTA [SIN4]	3.11
EIEQLDQYIQKQVQISH [YGL172W/NUP49]	2.75
NVDQTKTQCPNYDTCGG [RPC11]	3.06
PPPAPHNLHPQIGQVPL [SNF5]	2.8
AVSRSMTDIWNTLIPES [ECM29]	2.84
SDESIERLMTWKFKSLI [RRI2]	2.11
VLIAQERSAGNIVQVFK [RPB2]	2.97
VRIPPDQFHRDTISAIT [RPC25]	2.02
LNTLLVTSADSNLKISL [SWI1]	2.89
NNNINENELFNDRKQTT [SSN2]	2.87
EQISNNSNQQQNPKLFQ [SIN4]	3.13
ELALLNHWRQNKGRAVY [BRR2]	1.21

---

assay: protein stability index of a GFP-peptide fusion (yeast GPS) (PSI 1-4); higher = more stable; sorted into four equal gates, so the index is relative within each strain; details: ubr1∆
measured-attribute: protein stability index

item-sequence	result
SVVSMSNDVLKPETPKG [SIR2]	2.96
FEDATREQHIDTICQSI [SNF5]	3.19
DADKLSFNCENFFQAPQ [YML031W/NDC1]	2.3
VVDRESDIPKTTVQVAE [PRE4]	3.06
IQSQVFESLYNSNDSVF [BRR2]	2.09
PFKFGKTSEKSENHTES [YOR098C/NUP1]	2.92
EQISNNSNQQQNPKLFQ [SIN4]	2.95
LNDTTEKSKALESEIAS [SMC2]	3.18
KNSSQLLNEWSHNVDEL [RPN5]	2.64
GSNYNPYFPGGSIAMAR [CYT1]	2.35
SPTESYSDIGGLESQIQ [RPT2]	3.29
WIAMRREKRDRTHFKRM [PRP8]	1.93
FHAEPSGTFYRYNAKAI [PUP2]	1.67
DIENKEEEYDETHETNI [YAR002W/NUP60]	3.33
SFSFLNRADGTGEAQVD [YLR335W/NUP2]	2.78
PTSVKLLKTTVPIVSKK [POP3]	3
AAVIALGFVLLRDYTTV [RPN2]	1.27
NKLDEYHGLYTNYEMSY [LIN1]	1.6
DVECIKAKSHFTNIISR [YJL039C/NUP192]	2.97
EEEIKKFDSRIRGILMA [PRP8]	3.02
LSVEIGVLTDISSLIGG [NUT1]	2.18
IPGGPKFEPLYPREEEE [PRP8]	2.91
LLQSSIINKLIHIQSKE [POP3]	2.28
YQMQSNYESVFTYNKFL [YIL149C/MLP2]	1.5
TKLIGVLILLHAERDLA [SRP68]	2.78
LKYLSVEEVIKLVRDSF [PRE7]	3.08
PIDDTMTLLTDSLRKLY [MTW1]	2.22
PGQKMSLFSHRKHTRGD [BRN1]	3.22
PAFSFNSSVGNKTDAQA [YJL041W/NSP1]	3.16
FLLLAVNKYGLRADKLY [ISW2]	2.93

---

test: protein stability index of a GFP-peptide fusion (yeast GPS) (PSI 1-4); higher = more stable; sorted into four equal gates, so the index is relative within each strain; conditions: san1∆
Outcome: TRUE for protein stability index of at least 3; FALSE for anything lower.

item-sequence	answer-label
SYTDAQDKSKKIMNVTT [YMR129W/POM152]	FALSE
KKLEITSDGALSVMCGC [RPR2]	FALSE
LLENSVDKNFDKLELYV [MTW1]	TRUE
TASSEASAGSKEGASTN [YMR153W/NUP53]	TRUE
PLPTPFKVDDNVDFPSA [RPN2]	FALSE
LDISVFLLEKAGERKIP [TAF14]	FALSE
DHHPEGLSAREAVKQAA [PRE10]	FALSE
NHGGSLGKYDLTVIEKL [SRP68]	TRUE
FDVVLTTFEYIIKERAL [SNF2]	FALSE
ALAQQKLLTPQDMEAAK [GAL11]	TRUE
LQRASSKMGAPWCVKPE [ITC1]	TRUE
SLKLENSDLEGKIRGVE [SMC2]	TRUE
RRIKEAEENLKKRIRLP [YIL149C/MLP2]	FALSE
EDHDVHSNESSNETIGE [IRR1]	TRUE
MPRLEEIDDFNDIDDLD [SEC65]	FALSE
HRDKNKMDMICRNINRK [DIS3]	FALSE
SGTKSEVLTYVNYLISN [YJL039C/NUP192]	FALSE
LVSSASQQLLEILVTEL [RPN2]	FALSE
LYKTFFKRNAVFVGTIF [QCR9]	FALSE
GLRNQNMVRNNNNNTID [GRR1]	FALSE
QAISYLHKLQRMRLRAL [GRR1]	FALSE
IYEEVRAVLKSFLESVI [HHF1]	FALSE
PWVVYLQILAMLLLNIF [YMR129W/POM152]	FALSE
LQKKVASILLALTQMDQ [RPB3]	FALSE
SPRNTYQCAMGKQAIGA [RET1]	FALSE
WYQFSNSKDHKKITLQL [SIN4]	FALSE
TFIDKERHQKQLNEKLV [YCS4]	FALSE
TKLGFTFTIKEFVSYYY [SNU114]	FALSE
RKILKKTFKNPKYESLK [RPN5]	TRUE
NKLDEYHGLYTNYEMSY [LIN1]	FALSE
FEIDDEHRIRVFFDKRI [RPS6A]	FALSE
IRNARSIRAEAVAASST [POP1]	FALSE
MPGGYFHSEISPDSTVN [YAR002W/NUP60]	FALSE
IVGQKNLNRAFNGDQVI [DIS3]	FALSE
ARGMTSKPAGFMKKLRA [RPS15]	FALSE
TKFSNPAIPPVIDLEKI [BRR2]	FALSE
TASFIPLDTIETELPTL [SMC1]	FALSE
NSINKTTVPFKESDDPS [POP1]	FALSE
YKGMASNDERIVKRLYE [BRR2]	TRUE
SLAQNDCNSALDQLLVL [RPN5]	FALSE
SAKPSQIPTVSSPLGFE [SIR4]	FALSE
NLLTPQPTNFTTKRLWS [MCD1]	FALSE
TRLKSLLKPFHVKVNDK [SIR3]	FALSE
DNTARVIFDASIKDTQN [BRN1]	FALSE
KESPWKILMYQYNIPPE [RRP6]	FALSE
RGDSTETSSFGSMFSGD [RRI1]	TRUE
LVSLLDENDSKKNNAAS [YAR002W/NUP60]	FALSE
SVSLLNSDIANLRTQVT [SMC1]	TRUE
LDFIGRRGTALGIKKEK [RPB2]	FALSE
TKVNNQLIKVAVHNGGR [RPL9A]	FALSE

---

As shown below, each of these sequences has a reported protein stability index value.
test: protein stability index of a GFP-peptide fusion (yeast GPS) (PSI 1-4); higher = more stable; sorted into four equal gates, so the index is relative within each strain; conditions: pdr5∆

item-sequence	protein stability index
NVLLLDSNGDFNEDQLF [RRP46]	3.04
GNSEAIPGLSAGVNNDN [RTT102]	3.53
FKERQMMVSYPKIDEDD [AAR2]	3.2
NSMEYTGKITKMFQDIR [CDC53]	3.41
LCLEKLMCLSSKYCEKS [YCS4]	2.34
MFTATMTPVIEKIAAGY [PRP28]	1.81
GSPKSATSKTSEMLAKY [CDC53]	2.48
SVDIGVETILSGKARIC [FAS2]	2.75
VRYEEKRELKQLLEKAP [BRR2]	2.35
KYKPTPLYVMDEIDAAL [SMC4]	3.06
EYAALASLADVMSIESL [FAS1]	3.11
QLASQLVDLKKELAELK [RPL35A]	3.68
NIPRRELKINLPLTEHK [SRB4]	2.66
QRHIAVGKQIVNIPSFM [RPS9A]	2.74
KQNNKDFRTRYIDIRTN [MTW1]	2.65
